# System: 967376-340-R-J2-PDC multicell spheroid viability;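 also: luminescence used as surrogate of cell viability; spheroids exposed to agents for 7 days before read-out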
# procedureSummary: Anticancer human tumor 967376-340-R-J2-PDC patient-derived colon adenocarcinoma cell line growth inhibition [PI3K]
# reportedConditions: second compound 0.1 µM; first compound 0.316 µM; stronger effect = lower value
measuredParameter: viability, T/C (%)
One number for each entry, in %.

molecule	testedOn	viability, T/C / %
CNC(=O)c1ccc(N2C(=S)N(c3ccc(C#N)c(C(F)(F)F)c3)C(=O)C2(C)C)cc1F + CC(Nc1ccc2c(c1)OCCn1cc(N3C(=O)OCC3C(F)F)nc1-2)C(N)=O	967376-340-R-J2-PDC multicell spheroid viability	73.5
C=CC(=O)N1CCN(c2nc(=O)n(-c3c(C)ccnc3C(C)C)c3nc(-c4c(O)cccc4F)c(F)cc23)C(C)C1 (stereo not drawn) + Cc1nc(NC(=O)N2CCCC2C(N)=O)sc1-c1ccnc(C(C)(C)C(F)(F)F)c1	967376-340-R-J2-PDC multicell spheroid viability	75.6

As a next step, examine the molecule that follows.
// viability, T/C lookup, key: C#Cc1c(F)ccc2cc(O)cc(-c3ncc4c(N5CC6CCC(C5)N6)nc(OCC56CCCN5CC(F)C6)nc4c3F)c12 (stereo not drawn) + CC(Nc1ccc2c(c1)OCCn1cc(N3C(=O)OCC3C(F)F)nc1-2)C(N)=O 86.6
